Biological target: hM1 (human Muscarinic receptor subtype 1) (Homo sapiens, UniProt P11229)
Construct: expressed in transfected cells; host or cells: CHO cells (Chinese hamster ovary cells, ATCC)
Sequence (P11229 1-460): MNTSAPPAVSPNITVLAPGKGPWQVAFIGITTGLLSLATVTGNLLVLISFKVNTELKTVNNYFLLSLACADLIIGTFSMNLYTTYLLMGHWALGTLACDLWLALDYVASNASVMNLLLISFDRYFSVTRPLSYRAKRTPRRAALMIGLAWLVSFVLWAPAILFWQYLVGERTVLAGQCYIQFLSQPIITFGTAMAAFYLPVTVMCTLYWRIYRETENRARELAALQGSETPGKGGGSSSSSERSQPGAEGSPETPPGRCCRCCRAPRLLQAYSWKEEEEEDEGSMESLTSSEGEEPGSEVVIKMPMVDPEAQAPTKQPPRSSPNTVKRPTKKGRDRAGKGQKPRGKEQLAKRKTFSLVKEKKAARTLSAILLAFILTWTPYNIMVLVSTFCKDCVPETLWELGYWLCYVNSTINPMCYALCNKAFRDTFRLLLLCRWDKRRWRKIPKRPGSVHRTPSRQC
Test: Human M1 calcium mobilization FLIPR assay
Assay type: cell-based
Conditions: hM1 expressed in CHO cells, intracellular Ca2+ release, read-out: hM1 EC50
Measured EC50 accompanies every entry in the list below.

COMPOUND: COC(=O)N1CCC(C)(N2CCC(n3c(=O)[nH]c4cc(F)ccc43)CC2)C1 (single isomer, unassigned) [Example 23]
EC50 / nM: 9.4
//
COMPOUND: Cc1ccc2c(c1)[nH]c(=O)n2C1CCN(C2(C)CCN(C(=O)OCCF)C2)CC1 (single isomer, unassigned) [Example 29]
EC50 / nM: 166
//
COMPOUND: COC(=O)N1CCC(C)(N2CCC(n3c(=O)[nH]c4ccccc43)CC2)C1 (single isomer, unassigned) [Example 30]
EC50 / nM: 108
//
COMPOUND: Cc1ccc2c(c1)[nH]c(=O)n2C1CCN(C2(C)CCN(C(=O)OC(C)C)C2)CC1 (single isomer, unassigned) [Example 14]
EC50 / nM: 48.3
//
COMPOUND: CCCOC(=O)N1CCC(C)(N2CCC(n3c(=O)[nH]c4ccc(F)cc43)CC2)C1 (single isomer, unassigned) [Example 63]
EC50 / nM: 344
//
COMPOUND: CC#CCOC(=O)N1CCC(C)(N2CCC(n3c(=O)[nH]c4cc(F)ccc43)CC2)C1 (single isomer, unassigned) [Example 35]
EC50 / nM: 56.9

----------
biological target: hM3 (human Muscarinic receptor subtype 3) (Homo sapiens, UniProt P20309); construct: expressed in transfected cells; host or cells: CHO cells (Chinese hamster ovary cells, ATCC); assay: Human M3 calcium mobilization FLIPR assay; format: cell-based; conditions: hM3 expressed in CHO cells, intracellular Ca2+ release, read-out: hM3 EC50
Sequence (P20309 whole entry): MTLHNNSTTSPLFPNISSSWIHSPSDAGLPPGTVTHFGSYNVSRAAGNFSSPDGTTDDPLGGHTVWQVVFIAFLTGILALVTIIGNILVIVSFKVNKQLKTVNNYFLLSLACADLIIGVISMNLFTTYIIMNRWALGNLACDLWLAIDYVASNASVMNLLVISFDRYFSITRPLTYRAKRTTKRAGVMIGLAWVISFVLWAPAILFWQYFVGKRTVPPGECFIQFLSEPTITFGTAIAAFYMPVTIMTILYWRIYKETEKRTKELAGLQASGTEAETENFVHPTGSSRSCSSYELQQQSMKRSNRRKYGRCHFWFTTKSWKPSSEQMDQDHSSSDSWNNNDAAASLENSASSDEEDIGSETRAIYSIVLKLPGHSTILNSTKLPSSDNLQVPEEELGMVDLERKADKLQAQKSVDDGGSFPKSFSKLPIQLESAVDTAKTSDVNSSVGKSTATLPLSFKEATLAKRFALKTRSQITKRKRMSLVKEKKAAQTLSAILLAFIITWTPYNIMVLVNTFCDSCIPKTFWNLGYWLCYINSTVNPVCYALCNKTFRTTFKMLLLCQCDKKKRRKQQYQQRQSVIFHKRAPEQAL
pEC50: −log10 of the molar value.
Reported pEC50 by item:

COMPOUND: CCOC(=O)N1CCC(C)(N2CCC(N3C(=O)Cc4cc(F)c(C)cc43)CC2)C1 (single isomer, unassigned) [Example 81]
pEC50: < 4.88

COMPOUND: COC(=O)N1CCC(C)(N2CCC(n3c(=O)[nH]c4ccc(F)cc43)CC2)C1 (single isomer, unassigned) [Example 52]
pEC50: < 4.40

COMPOUND: COC(=O)N1CCC(C)(N2CCC(N3C(=O)Cc4ccc(C)cc43)CC2)C1 (single isomer, unassigned) [Example 68]
pEC50: 5.63

COMPOUND: CCOC(=O)N1CCC(C)(N2CCC(n3c(=O)[nH]c4ccccc43)CC2)C1 (stereo not shown) [Example 1]
pEC50: 5.85

COMPOUND: CCNC(=O)N1CCC(C)(N2CCC(n3c(=O)[nH]c4ccccc43)CC2)C1 (stereo not shown) [Example 5]
pEC50: < 4.40

COMPOUND: C#CCOC(=O)N1CCC(C)(N2CCC(n3c(=O)[nH]c4ccc(C)cc43)CC2)C1 (single isomer, unassigned) [Example 41]
pEC50: < 4.40

COMPOUND: CC1(N2CCC(n3c(=O)[nH]c4cc(F)c(F)cc43)CC2)CCN(C(=O)OCCF)C1 (single isomer, unassigned) [Example 61]
pEC50: < 4.40

----------
biological target: hM1 (human Muscarinic receptor subtype 1) (Homo sapiens); construct: expressed in transfected cells; host or cells: CHO cells (Chinese hamster ovary cells, ATCC); assay: Human M1 calcium mobilization FLIPR assay; format: cell-based; details: hM1 expressed in CHO cells, intracellular Ca2+ release, read-out: hM1 EC50

COMPOUND: Cc1ccc2c(c1)[nH]c(=O)n2C1CCN(C2(C)CCN(C(=O)OC(C)C)C2)CC1 (single isomer, unassigned) [Example 15]
EC50: 94.9 nM
//
COMPOUND: COC(=O)N1CCC(C)(N2CCC(n3c(=O)[nH]c4ccc(F)cc43)CC2)C1 (single isomer, unassigned) [Example 52]
EC50: 14.7 nM
//
COMPOUND: CCOC(=O)N1CCC(C)(N2CCC(N3C(=O)Cc4cc(F)c(C)cc43)CC2)C1 (single isomer, unassigned) [Example 82]
EC50: 8.7 nM
//
COMPOUND: CC#CCOC(=O)N1CCC(C)(N2CCC(n3c(=O)[nH]c4ccccc43)CC2)C1 (single isomer, unassigned) [Example 34]
EC50: 14.7 nM
//
COMPOUND: CCOC(=O)N1CCC(C)(N2CCC(n3c(=O)[nH]c4cc(F)c(F)cc43)CC2)C1 (single isomer, unassigned) [Example 57]
EC50: 2.6 nM
//
COMPOUND: CC1(N2CCC(n3c(=O)[nH]c4ccc(F)cc43)CC2)CCN(C(=O)OCCF)C1 (single isomer, unassigned) [Example 53]
EC50: 11.5 nM
//
COMPOUND: COC(=O)N1CCC(C)(N2CCC(N3C(=O)Cc4ccc(F)cc43)CC2)C1 (single isomer, unassigned) [Example 76]
EC50: 40.1 nM

----------
Molecular target: hM1 (human Muscarinic receptor subtype 1) (Homo sapiens)
Construct: expressed in transfected cells; host or cells: CHO cells (Chinese hamster ovary cells, ATCC)
Assay: Human M1 calcium mobilization FLIPR assay
Type: cell-based
Settings: hM1 expressed in CHO cells, intracellular Ca2+ release, read-out: hM1 EC50
Method: Human M1, rat M1, human M3 and human M5 Calcium Mobilization FLIPR™ Assay The compound activity in the present invention (EC50 or IC50) is measured using a 384 plate-based imaging assay that monitors drug induced intracellular Ca^2+ release in whole cells. […] Inhibition of hM3 and hM5 by compounds is determined by the decrease in fluorescent signal in response to 2 nM acetylcholine activation. […]

MOLECULE: COC(=O)N1CCC(C)(N2CCC(N3C(=O)Cc4c3cc(C)cc4C(C)(C)C)CC2)C1 (stereo not drawn) [Example 86]
CENSOR_SYMBOL: =
EC50 / nM: 1420
//
MOLECULE: COC(=O)N1CCC(C)(N2CCC(n3c(=O)[nH]c4ccc(C)cc43)CC2)C1 (single isomer, unassigned) [Example 47]
CENSOR_SYMBOL: <
EC50 / nM: 3.2
//
MOLECULE: CC#CCOC(=O)N1CCC(C)(N2CCC(n3c(=O)[nH]c4ccc(C)cc43)CC2)C1 (single isomer, unassigned) [Example 20]
CENSOR_SYMBOL: =
EC50 / nM: 14.2
//
MOLECULE: CC#CCOC(=O)N1CCC(C)(N2CCC(n3c(=O)[nH]c4ccccc43)CC2)C1 (single isomer, unassigned) [Example 33]
CENSOR_SYMBOL: =
EC50 / nM: 1.7
//
MOLECULE: CCOC(=O)N1CCC(C)(N2CCC(N3C(=O)Cc4cc(F)ccc43)CC2)C1 (single isomer, unassigned) [Example 80]
CENSOR_SYMBOL: =
EC50 / nM: 69.4
//
MOLECULE: CCOC(=O)N1CCC(C)(N2CCC(n3c(=O)[nH]c4cc(F)ccc43)CC2)C1 (single isomer, unassigned) [Example 7]
CENSOR_SYMBOL: <
EC50 / nM: 6.6
//
MOLECULE: COC(=O)N1CCC(C)(N2CCC(n3c(=O)[nH]c4ccc(C)cc43)CC2)C1 (single isomer, unassigned) [Example 45]
CENSOR_SYMBOL: =
EC50 / nM: 14.1
//
MOLECULE: CCOC(=O)N1CCC(C)(N2CCC(n3c(=O)[nH]c4cc(C)ccc43)CC2)C1 (single isomer, unassigned) [Example 12]
CENSOR_SYMBOL: =
EC50 / nM: 10.1
//
MOLECULE: CC(C)OC(=O)N1CCC(C)(N2CCC(n3c(=O)[nH]c4ccc(F)cc43)CC2)C1 (single isomer, unassigned) [Example 66]
CENSOR_SYMBOL: =
EC50 / nM: 50.2
//
MOLECULE: CC#CCOC(=O)N1CCC(C)(N2CCC(n3c(=O)[nH]c4cc(F)ccc43)CC2)C1 (single isomer, unassigned) [Example 22]
CENSOR_SYMBOL: =
EC50 / nM: 2.8
//
MOLECULE: CCOC(=O)N1CCC(C)(N2CCC(N3C(=O)Cc4ccc(F)cc43)CC2)C1 (single isomer, unassigned) [Example 74]
CENSOR_SYMBOL: =
EC50 / nM: 10
//
MOLECULE: C#CCOC(=O)N1CCC(C)(N2CCC(n3c(=O)[nH]c4cc(F)ccc43)CC2)C1 (stereo not drawn) [Example 11]
CENSOR_SYMBOL: =
EC50 / nM: 2
//
MOLECULE: COC(=O)N1CCC(C)(N2CCC(n3c(=O)[nH]c4ccc(F)cc43)CC2)C1 (single isomer, unassigned) [Example 51]
CENSOR_SYMBOL: =
EC50 / nM: 57.1
//
MOLECULE: COC(=O)N1CCC(C)(N2CCC(n3c(=O)[nH]c4cc(F)c(F)cc43)CC2)C1 (single isomer, unassigned) [Example 60]
CENSOR_SYMBOL: =
EC50 / nM: 13.5
//
MOLECULE: COC(=O)N1CCC(C)(N2CCC(n3c(=O)[nH]c4cc(C)ccc43)CC2)C1 (single isomer, unassigned) [Example 46]
CENSOR_SYMBOL: =
EC50 / nM: 132
//
MOLECULE: CC1(N2CCC(n3c(=O)[nH]c4cc(F)ccc43)CC2)CCN(C(=O)OCCF)C1 (single isomer, unassigned) [Example 38]
CENSOR_SYMBOL: =
EC50 / nM: 112
//
MOLECULE: COC(=O)N1CCC(C)(N2CCC(N3C(=O)Cc4ccc(C)cc43)CC2)C1 (single isomer, unassigned) [Example 68]
CENSOR_SYMBOL: =
EC50 / nM: 13.3
//
MOLECULE: CCOC(=O)N1CCC(C)(N2CCC(N3C(=O)C4(CC4)c4ccc(F)cc43)CC2)C1 (stereo not drawn) [Example 87]
CENSOR_SYMBOL: =
EC50 / nM: 125
//
MOLECULE: Cc1ccc2[nH]c(=O)n(C3CCN(C4(C)CCN(C(=O)OC(C)C)C4)CC3)c2c1 (single isomer, unassigned) [Example 40]
CENSOR_SYMBOL: =
EC50 / nM: 36.3
//
MOLECULE: CCOC(=O)N1CCC(C)(N2CCC(N3C(=O)Cc4c3cc(F)cc4C(C)(C)C)CC2)C1 (stereo not drawn) [Example 85]
CENSOR_SYMBOL: =
EC50 / nM: 1470
//
MOLECULE: CC1(N2CCC(n3c(=O)[nH]c4ccc(F)cc43)CC2)CCN(C(=O)OCCF)C1 (single isomer, unassigned) [Example 54]
CENSOR_SYMBOL: =
EC50 / nM: 92.8
//
MOLECULE: Cc1ccc2[nH]c(=O)n(C3CCN(C4(C)CCN(C(=O)OCCF)C4)CC3)c2c1 (single isomer, unassigned) [Example 26]
CENSOR_SYMBOL: =
EC50 / nM: 7.8
//
MOLECULE: Cc1ccc2[nH]c(=O)n(C3CCN(C4(C)CCN(C(=O)OC(C)C)C4)CC3)c2c1 (single isomer, unassigned) [Example 39]
CENSOR_SYMBOL: =
EC50 / nM: 26.7
//
MOLECULE: CCOC(=O)N1CCC(C)(N2CCC(N3C(=O)Cc4ccccc43)CC2)C1 (single isomer, unassigned) [Example 72]
CENSOR_SYMBOL: =
EC50 / nM: 9.5
//
MOLECULE: CC(C)OC(=O)N1CCC(C)(N2CCC(n3c(=O)[nH]c4cc(F)ccc43)CC2)C1 (stereo not drawn) [Example 9]
CENSOR_SYMBOL: =
EC50 / nM: 124
//
MOLECULE: COC(=O)N1CCC(C)(N2CCC(n3c(=O)[nH]c4cc(F)c(F)cc43)CC2)C1 (single isomer, unassigned) [Example 59]
CENSOR_SYMBOL: =
EC50 / nM: 77.6
//
MOLECULE: CC1(N2CCC(n3c(=O)[nH]c4cc(F)ccc43)CC2)CCN(C(=O)OCCF)C1 (single isomer, unassigned) [Example 24]
CENSOR_SYMBOL: =
EC50 / nM: 10.4
